System: Diabrotica balteata
Experiment: Diabrotica balteata spray test
Format: in vivo
Conditions: 168 h, application rate 100 g/ha (=32 μg/well), wheat seeds, larvae, after 7 days, read-out: activity (efficacy: 100% means all seedlings have grown up like in the untreated, uninfected control)
property: pest or weed control at 32 µg/disc, 100 g/ha (%)
// return numeric value only (unit: %, not printed)

Take a look at these entries with their results.
1) Cc1nc([C@H](C)NC(=O)c2cc(OC(F)F)cc(OC(F)F)c2)n(-c2ccc(C#N)cn2)n1
100
2) C[C@H](NC(=O)c1cc(Cl)cc(C(F)(F)C(F)(F)F)c1)c1ncnn1-c1nccs1
100
3) C[C@H](NC(=O)c1cc(Cl)cc(C(F)(F)F)c1)c1ncnn1-c1ccc(C(=O)N(C)CC(F)(F)F)cn1
80

May I ask what pest or weed control at 32 µg/disc, 100 g/ha has been recorded for "Cc1nc([C@H](C)NC(=O)c2cc(C(F)(F)F)cc(C(F)(F)F)c2)n(-c2ccc(C(=O)N(C)CC(F)(F)F)cn2)n1" ? 100

Same thing, different compound: CC(NC(=O)c1cc(Br)cc(Br)c1)c1nc(Br)nn1-c1ccc(C#N)cn1 (centres unmarked) 100

Same thing, different compound: "Cc1nc([C@H](C)NC(=O)c2cc(C#N)cc(C(F)(F)F)c2)n(-c2ccc(C#N)cn2)n1" 100

Same thing, different compound: "CC(C)c1nc([C@H](C)NC(=O)c2cc(Br)cc(C(F)(F)F)c2)n(-c2ccc(C#N)cn2)n1" 80

Same thing, different compound: "Cc1nc([C@H](C)NC(=O)c2cc(Br)cc(C#N)c2)n(-c2ccc(C#N)cn2)n1" 100

Cited source for all entries: patent US20220274947A1
